Method notes: physchem
Reported conditions: pH 7.4 buffer
Result type: solubility thermodynamic (µM)
Please state the figure in µM; there is no need to write the unit.

q: Would you kindly share the measured solubility thermodynamic for "C[C@@H](Oc1cccc2ncnc(Nc3ccc4c(cnn4Cc4cccc(F)c4)c3)c12)C(=O)N(C)C" ?
a: 2.6

q: Would you kindly share the measured solubility thermodynamic for "CCOC(=O)C1CCN(c2ncnc(Oc3ccc(CCC(C)=O)cc3)c2[N+](=O)[O-])CC1" ?
a: 1.9

q: Would you kindly share the measured solubility thermodynamic for CC(C)c1c(C(=O)NC2C3CC4CC(C3)CC2C4)cnn1-c1ccc(C(=O)O)cc1 (centres undefined) ?
a: 224

q: Would you kindly share the measured solubility thermodynamic for "CC(C)(C)Cn1c2ccccc2c2cc(NC(=O)N3CCOCC3)ccc21" ?
a: 0.1

q: Would you kindly share the measured solubility thermodynamic for "CN(C(=O)Cc1ccc(F)cc1)C1CCN(CCC(c2ccccc2)c2ccccc2)CC1" ?
a: 129

q: Would you kindly share the measured solubility thermodynamic for "CC1(C)C(=O)N(c2ccc(SC(F)(F)F)cc2)C(=O)N1Cc1ccnc(N2CCOCC2)c1" ?
a: 3

q: Would you kindly share the measured solubility thermodynamic for "Cc1ccc(CO)cc1N(c1ccnc(Nc2cc(N3CCOCC3)cc(S(C)(=O)=O)c2)n1)C(C)C" ?
a: 1.3

q: Would you kindly share the measured solubility thermodynamic for "CNC(=O)[C@@H](C)Oc1cccc2ncnc(Nc3ccc(OCc4ccccn4)c(Cl)c3)c12" ?
a: 1.6

q: Would you kindly share the measured solubility thermodynamic for "Cc1cccc2c3c([nH]c12)CCN(C(=O)[C@@H]1CCCC[C@H]1C(=O)NC1(C#N)CC1)C3" ?
a: 513

The origin of these recorded values is ChEMBL document CHEMBL3301361.
